test system: HIV-1 (NL4-3 strain); assay: Assay for Inhibition of HIV Replication (kinetic assay, MT4-gag-GFP reporter cell line; VIKING); assay type: cell-based; conditions: MT4-GFP cells infected with HIV-1 NL4-3; 100% normal human serum (NHS); read-out: VIKING IP50 (nM) with 100% NHS
Output t for records whose IC50 is lower than 1000 nM, f for records at or above 1000 nM.

Enquiry: Find out if reported IC50 for O=C(NCc1ccc(F)cc1)c1c2n3c(c(O)c1=O)C(=O)N1CCCOC1C3CC2 (single isomer, unassigned) [Compound 51] is less than 1000 nM
Return: t

Enquiry: Find out if reported IC50 for O=C(NCc1ccc(F)cc1F)c1c2n3c(c(O)c1=O)C(=O)N1CCCOC1C3CC2 (single isomer, unassigned) [Compound 56] is less than 1000 nM
Return: f

Enquiry: Find out if reported IC50 for O=C(NCc1cccc(Cl)c1F)c1c2n3c(c(O)c1=O)C(=O)N1CCCCOC1C3CC2 (single isomer, unassigned) [Compound 65] is less than 1000 nM
Return: f

Enquiry: Find out if reported IC50 for O=C(NCc1ccc(F)cc1F)c1c2n3c(c(O)c1=O)C(=O)N1CCCOC1C3CC2 (single isomer, unassigned) [Compound 58] is less than 1000 nM
Return: f

Enquiry: Find out if reported IC50 for CC12OCCCN1C(=O)c1c(O)c(=O)c(C(=O)NCc3ccc(F)cc3F)c3n1C2CC3 (stereo not drawn) [Compound 134] is less than 1000 nM
Return: t

Enquiry: Find out if reported IC50 for O=C(NCc1ccc(F)cc1F)c1c2n3c(c(O)c1=O)C(=O)N1CCOC1C3CC2 (single isomer, unassigned) [Compound 7] is less than 1000 nM
Return: f

* * *

system: HIV-1 (NL4-3 strain); test: Assay for Inhibition of HIV Replication (kinetic assay, MT4-gag-GFP reporter cell line; VIKING); format: cell-based; settings: MT4-GFP cells infected with HIV-1 NL4-3; 100% normal human serum (NHS); read-out: VIKING IP50 (nM) with 100% NHS
Known IC50 of a selection of compounds
Reply numerically in nM, unit not repeated.

Solved cases below.
compound="C[C@H]1CNC2C3CCc4c(C(=O)NCc5ccc(F)cc5F)c(=O)c(O)c(n43)C(=O)N21 (stereo partly drawn) [Compound 99]" readingunit=nM resultvalue=19.2
compound="O=C(NCc1c(F)cccc1F)c1c2n3c(c(O)c1=O)C(=O)N1CCOC1C3CC2 (single isomer, unassigned) [Compound 15]" readingunit=nM resultvalue=373

In the following, a different compound is considered.
Enquiry: Give the reported value of IC50 for this record: CCNC1CC2C3OCCCN3C(=O)c3c(O)c(=O)c(C(=O)NCc4c(F)cc(F)cc4F)c1n32 (stereo not drawn) [Compound 184]
Return: 167

* * *

test system: HIV-1 (NL4-3 strain); experiment: Assay for Inhibition of HIV Replication (kinetic assay, MT4-gag-GFP reporter cell line; VIKING); assay type: cell-based; conditions: MT4-GFP cells infected with HIV-1 NL4-3; 0% normal human serum (NHS); read-out: VIKING IP50 (nM) with 0% NHS
measure: IC50 (nM)
Reply numerically in nM, unit not repeated.

Solved cases below.
compound="CCNC1CC2C3OCCCN3C(=O)c3c(O)c(=O)c(C(=O)NCc4cccc(F)c4F)c1n32 (stereo not drawn) [Compound 191]" testedon="HIV-1 (NL4-3 strain)" readingunit=nM resultvalue=12.6
compound="CCNC1CC2C3OCCCN3C(=O)c3c(O)c(=O)c(C(=O)NCc4c(F)cc(F)cc4F)c1n32 (stereo not drawn) [Compound 180]" testedon="HIV-1 (NL4-3 strain)" readingunit=nM resultvalue=3.57

In the following, a different compound is considered.
Enquiry: Param request: IC50 | system HIV-1 (NL4-3 strain) | item C[C@@H]1COC2C3CCc4c(C(=O)NCc5cccc(Cl)c5F)c(=O)c(O)c(n43)C(=O)N21 (single isomer, unassigned) [Compound 37]
Return: 0.546
